# Test system: Somatostatin sst4 (Homo sapiens)
# Construct: host or cells: CHO-K1
# Assay protocol: Somatostatin sst4 radioligand binding assay
# Condition summary: Cheng-Prusoff from IC50
Measurement name: Ki (µM)
Numeric answer only, unit µM assumed.

Entry CN1C(=O)N(Cc2c[nH]c3ccccc23)C(=O)C12CCN(C(=O)CCCN)c1cc(Oc3ccccc3)ccc12 (stereo not shown) : reported Ki = ? 5.27

###

# Test system: Somatostatin sst 3 (Homo sapiens, UniProt P32745)
# Construct: host or cells: CHO-K1
# Sequence (P32745 whole entry): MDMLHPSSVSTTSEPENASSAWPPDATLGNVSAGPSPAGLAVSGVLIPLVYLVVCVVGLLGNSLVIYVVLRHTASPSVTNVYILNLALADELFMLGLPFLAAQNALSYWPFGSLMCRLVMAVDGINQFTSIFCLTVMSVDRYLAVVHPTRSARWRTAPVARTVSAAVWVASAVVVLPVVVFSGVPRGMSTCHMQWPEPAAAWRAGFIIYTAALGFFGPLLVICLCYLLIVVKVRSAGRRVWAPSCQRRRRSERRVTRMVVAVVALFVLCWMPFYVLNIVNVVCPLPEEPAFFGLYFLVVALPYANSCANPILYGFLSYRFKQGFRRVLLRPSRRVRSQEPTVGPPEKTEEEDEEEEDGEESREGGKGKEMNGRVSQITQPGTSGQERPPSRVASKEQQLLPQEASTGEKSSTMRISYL
# Assay protocol: Somatostatin sst3 radioligand binding assay
Recorded pIC50 values for a group of compounds are listed next.
Notebook: values listed as pIC50 are -log10 of the concentration (mol/L).

{"columns": ["Compound", "Test system", "pIC50"],
 "data": [
  ["CN1C(=O)N(Cc2c[nH]c3ccccc23)C(=O)C12CCN(C(=O)CCCN)c1cc(Oc3ccccc3)ccc12 (centres unmarked)", "Somatostatin sst 3 (Homo sapiens, UniProt P32745)", 5.18]
]}

Provide value of pIC50 for this record tested with Somatostatin sst 3 (Homo sapiens, UniProt P32745): CN1C(=O)N(Cc2c[nH]c3ccccc23)C2(CCN(CCCCN)c3cc(Oc4ccccc4)ccc32)C1=O (centres unmarked) 5.23

###

# Test system: Somatostatin sst4 (Homo sapiens, UniProt P31391)
# Construct: host or cells: CHO-K1
# Sequence (P31391 whole entry): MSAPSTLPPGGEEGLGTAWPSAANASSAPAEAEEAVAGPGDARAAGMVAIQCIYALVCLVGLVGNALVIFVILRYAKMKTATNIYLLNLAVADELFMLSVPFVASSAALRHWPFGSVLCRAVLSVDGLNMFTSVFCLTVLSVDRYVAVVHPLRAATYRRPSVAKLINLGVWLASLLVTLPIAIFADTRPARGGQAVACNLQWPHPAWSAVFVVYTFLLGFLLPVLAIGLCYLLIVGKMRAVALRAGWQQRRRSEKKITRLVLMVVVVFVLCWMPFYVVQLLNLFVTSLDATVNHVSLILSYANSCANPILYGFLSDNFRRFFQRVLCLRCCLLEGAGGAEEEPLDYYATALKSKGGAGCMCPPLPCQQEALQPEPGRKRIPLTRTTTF
# Assay protocol: Somatostatin sst4 radioligand binding assay
# Condition summary: Table 4; human
nH for assorted compounds
Form field (numeric): enter value without unit.

Solved entries (count: 3):
{"columns": ["Compound", "Test system", "Measurement name", "Meas value"],
 "data": [
  ["Cc1ccc(Oc2ccc3c(c2)N(CCCCN)CCC32C(=O)N(C)C(=O)N2Cc2c[nH]c3ccccc23)cc1 (centres unmarked)", "Somatostatin sst4 (Homo sapiens, UniProt P31391)", "nH", 1.15],
  ["CN1C(=O)N(CCc2c[nH]c3ccccc23)C(=O)C12CCN(CCCCN)c1cc(Oc3ccc4c(c3)OCO4)ccc12 (centres unmarked)", "Somatostatin sst4 (Homo sapiens, UniProt P31391)", "nH", 1.25],
  ["Cc1ccc(Oc2ccc3c(c2)N(CCCCN)CCC32C(=O)N(CCc3c[nH]c4ccccc34)C(=O)N2C)cc1 (centres unmarked)", "Somatostatin sst4 (Homo sapiens, UniProt P31391)", "nH", 1]
]}

Form field: nH recorded for CN1C(=O)N(Cc2c[nH]c3ccccc23)C(=O)C12CCN(C(=O)CCCN)c1cc(Oc3ccccc3)ccc12 (centres unmarked) with Somatostatin sst4 (Homo sapiens, UniProt P31391) (enter value) 0.504

Okay, and Cc1ccc(Oc2ccc3c(c2)N(CCCCN)CCC32C(=O)N(CCc3c[nH]c4ccccc34)C(=O)N2C)cc1C (centres unmarked) ? 1.16

###

# Test system: Somatostatin sst1 (Homo sapiens, UniProt P30872)
# Construct: host or cells: CHO-K1
# Sequence (P30872 whole entry): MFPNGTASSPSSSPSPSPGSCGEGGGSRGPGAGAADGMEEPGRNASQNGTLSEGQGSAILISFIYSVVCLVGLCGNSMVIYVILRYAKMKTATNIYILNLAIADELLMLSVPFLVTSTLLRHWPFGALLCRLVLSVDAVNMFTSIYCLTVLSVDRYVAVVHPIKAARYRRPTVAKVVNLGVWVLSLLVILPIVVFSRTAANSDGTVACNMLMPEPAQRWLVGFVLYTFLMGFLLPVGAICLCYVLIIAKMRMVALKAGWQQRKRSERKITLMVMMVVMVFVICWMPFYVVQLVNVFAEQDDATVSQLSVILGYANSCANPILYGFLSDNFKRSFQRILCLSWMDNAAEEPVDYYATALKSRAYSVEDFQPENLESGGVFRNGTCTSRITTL
# Assay protocol: Somatostatin sst1 radioligand binding assay
# Condition summary: Table 4; human
Checkbox rule: IC50 lower than 800 nM = yes (1); IC50 not lower than 800 nM = no (0).

{"columns": ["Molecule", "Test system", "Group label"],
 "data": [
  ["Cc1ccc(Oc2ccc3c(c2)N(CCCCN)CCC32C(=O)N(CCc3c[nH]c4ccccc34)C(=O)N2C)cc1C (centres unmarked)", "Somatostatin sst1 (Homo sapiens, UniProt P30872)", "no (0)"],
  ["Cc1ccc(Oc2ccc3c(c2)N(CCCCN)CCC32C(=O)N(CCc3c[nH]c4ccccc34)C(=O)N2C)cc1 (centres unmarked)", "Somatostatin sst1 (Homo sapiens, UniProt P30872)", "no (0)"],
  ["CN1C(=O)N(CCc2c[nH]c3ccccc23)C(=O)C12CCN(CCCCN)c1cc(Oc3ccc4c(c3)OCO4)ccc12 (centres unmarked)", "Somatostatin sst1 (Homo sapiens, UniProt P30872)", "yes (1)"]
]}

Next:
Quick check: does CN1C(=O)N(CCc2c[nH]c3ccccc23)C(=O)C12CCN(CCCCN)c1cc(O)ccc12 (centres unmarked) have IC50 under 800 nM? no (0)

###

# Test system: Somatostatin sst 3 (Homo sapiens, UniProt P32745)
# Construct: host or cells: CHO-K1
# Assay protocol: Somatostatin sst3 radioligand binding assay
# Condition summary: Table 4; human
// values below are reported IC50
The reply should be a number in µM, with the unit left off.

Solved cases (3 shown):
{"columns": ["Molecule", "IC50 [µM]"],
 "data": [
  ["Cc1ccc(Oc2ccc3c(c2)N(CCCCN)CCC32C(=O)N(CCc3c[nH]c4ccccc34)C(=O)N2C)cc1 (stereo not shown) [H]", 7.58],
  ["Cc1ccc(Oc2ccc3c(c2)N(CCCCN)CCC32C(=O)N(C)C(=O)N2Cc2c[nH]c3ccccc23)cc1 (stereo not shown) [D]", 7.05],
  ["Cc1ccc(Oc2ccc3c(c2)N(CCCCN)CCC32C(=O)N(CCc3c[nH]c4ccccc34)C(=O)N2C)cc1C (stereo not shown) [I]", 7.96]
]}

May I ask what IC50 has been recorded for CN1C(=O)N(CCc2c[nH]c3ccccc23)C(=O)C12CCN(CCCCN)c1cc(Oc3ccc4c(c3)OCO4)ccc12 (stereo not shown) [J] ? 3.71

###

# Test system: Somatostatin sst 3 (Homo sapiens)
# Construct: host or cells: CHO-K1
# Assay protocol: Somatostatin sst3 radioligand binding assay
# Condition summary: Cheng-Prusoff from IC50
Measurement name: pKi
Conceptually, pKi converts a concentration in mol/L into minus its log10.

Fill in: pKi of CN1C(=O)N(Cc2c[nH]c3ccccc23)C2(CCN(CCCCN)c3cc(Oc4ccccc4)ccc32)C1=O (centres unmarked) is ___ 5.29

Note, next up: CN1C(=O)N(Cc2c[nH]c3ccccc23)C(=O)C12CCN(C(=O)CCCN)c1cc(Oc3ccccc3)ccc12 (centres unmarked) 5.23

###

# Test system: Somatostatin sst4 (Homo sapiens, UniProt P31391)
# Construct: host or cells: CHO-K1
# Assay protocol: Somatostatin sst4 radioligand binding assay
# Condition summary: Table 4; human
Measurement name: pKi
# pKi is unitless: minus log10 of the molar concentration; print number only

Worked cases, pKi given:
{"columns": ["Molecule", "Measurement name", "Meas value"],
 "data": [
  ["Cc1ccc(Oc2ccc3c(c2)N(CCCCN)CCC32C(=O)N(CCc3c[nH]c4ccccc34)C(=O)N2C)cc1C (stereo not shown)", "pKi", 5.64],
  ["CN1C(=O)N(CCc2c[nH]c3ccccc23)C(=O)C12CCN(CCCCN)c1cc(Oc3ccc4c(c3)OCO4)ccc12 (stereo not shown)", "pKi", 6.18],
  ["Cc1ccc(Oc2ccc3c(c2)N(CCCCN)CCC32C(=O)N(C)C(=O)N2Cc2c[nH]c3ccccc23)cc1 (stereo not shown)", "pKi", 5.35]
]}

Switching to the query record.
pKi lookup needed for Cc1ccc(Oc2ccc3c(c2)N(CCCCN)CCC32C(=O)N(CCc3c[nH]c4ccccc34)C(=O)N2C)cc1 (stereo not shown) , thanks. 6.24

###

# Test system: Somatostatin sst1 (Homo sapiens, UniProt P30872)
# Construct: host or cells: CHO-K1
# Assay protocol: Somatostatin sst1 radioligand binding assay
# Condition summary: Cheng-Prusoff from IC50
Measurement name: pKi
Just so you know, pKi here is -log10 of the concentration in molar units; reply with that number alone.

{"columns": ["Compound", "pKi"],
 "data": [
  ["CN1C(=O)N(Cc2c[nH]c3ccccc23)C2(CCN(CCCCN)c3cc(Oc4ccccc4)ccc32)C1=O (centres unmarked) [Compound B]", 5.51]
]}

Now consider a different compound.
pKi lookup needed for CN1C(=O)N(Cc2c[nH]c3ccccc23)C(=O)C12CCN(C(=O)CCCN)c1cc(Oc3ccccc3)ccc12 (centres unmarked) [Compound A] , thanks. 5.22

###

// inhibition at 10 µM lookup, one value per entry
# Test system: Somatostatin sst 3 (Homo sapiens)
# Construct: host or cells: CHO-K1
# Assay protocol: Somatostatin sst3 radioligand binding assay
# Condition summary: Table 4; human; Conc 10 μM (Conc not given in some rows)
Supply the numeric figure in %, leaving out any unit text.

{"columns": ["Compound", "inhibition at 10 µM, %"],
 "data": [
  ["CN1C(=O)N(Cc2c[nH]c3ccccc23)C2(CCN(CCCCN)c3cc(Oc4ccccc4)ccc32)C1=O (stereo not drawn)", 60]
]}

# input compound: Cc1ccc(Oc2ccc3c(c2)N(CCCCN)CCC32C(=O)N(CCc3c[nH]c4ccccc34)C(=O)N2C)cc1 (stereo not drawn) ; wanted: its inhibition at 10 µM 57

Same again, this time with Cc1ccc(Oc2ccc3c(c2)N(CCCCN)CCC32C(=O)N(CCc3c[nH]c4ccccc34)C(=O)N2C)cc1C (stereo not drawn) 56

Another compound to look at: CN1C(=O)N(Cc2c[nH]c3ccccc23)C(=O)C12CCN(C(=O)CCCN)c1cc(Oc3ccccc3)ccc12 (stereo not drawn) 56

Try Cc1ccc(Oc2ccc3c(c2)N(CCCCN)CCC32C(=O)N(C)C(=O)N2Cc2c[nH]c3ccccc23)cc1 (stereo not drawn) next. 68

And CN1C(=O)N(CCc2c[nH]c3ccccc23)C(=O)C12CCN(CCCCN)c1cc(Oc3ccc4c(c3)OCO4)ccc12 (stereo not drawn) ? 72
